test system: HEP‐G2 human hepatoma cell line; conditions: human, 24 h
Exercise: state measured LD50 (concentration to reduce cell viability by 50 %) for each of the molecules provided.

Example entries begin here.
molecule="Cc1cc(CNc2ccc(F)cc2F)ccc1NC(=O)c1cccnc1 [35 e]" reading="107 ± 16 µM"
molecule="CCCC(=O)Nc1ncc(CNc2ccc(F)cc2)cc1Br [42 a]" reading=">63 µM"

Provide the reported LD50 (concentration to reduce cell viability by 50 %) of each entry below, same order.
1. Cc1cc(CNc2ccc(F)cc2)cnc1NC(=O)CC(C)(C)C [43 b]
2. CCCC(=O)Nc1ccc(CNc2ccc(F)cc2)cc1C(F)(F)F.Cl [35 d]
3. CCOC(=O)Nc1ccc(C#Cc2ccccc2)nc1N [compound 21]
4. CCCC(=O)Nc1ccc(CNc2ccc(C)cn2)cc1C [35 f]
5. CCCC(=O)Nc1ccc(CNc2ccc(F)cc2)cc1C [35 b]
6. CCCC(=O)Nc1ccc(CNc2ccc(F)cc2)cc1F [35 c]

RESULT:
1. >125 µM
2. >125 µM
3. >125 µM
4. >125 µM
5. >125 µM
6. >63 µM

* * *

target: KV7.2/3 channel (Homo sapiens, UniProt O43525+O43526); assay: KV7.2/3 channel opening activity, thallium-flux FLIPR Potassium Assay in HEK-293 cells overexpressing KV7.2/3
Sequence (O43525 whole entry): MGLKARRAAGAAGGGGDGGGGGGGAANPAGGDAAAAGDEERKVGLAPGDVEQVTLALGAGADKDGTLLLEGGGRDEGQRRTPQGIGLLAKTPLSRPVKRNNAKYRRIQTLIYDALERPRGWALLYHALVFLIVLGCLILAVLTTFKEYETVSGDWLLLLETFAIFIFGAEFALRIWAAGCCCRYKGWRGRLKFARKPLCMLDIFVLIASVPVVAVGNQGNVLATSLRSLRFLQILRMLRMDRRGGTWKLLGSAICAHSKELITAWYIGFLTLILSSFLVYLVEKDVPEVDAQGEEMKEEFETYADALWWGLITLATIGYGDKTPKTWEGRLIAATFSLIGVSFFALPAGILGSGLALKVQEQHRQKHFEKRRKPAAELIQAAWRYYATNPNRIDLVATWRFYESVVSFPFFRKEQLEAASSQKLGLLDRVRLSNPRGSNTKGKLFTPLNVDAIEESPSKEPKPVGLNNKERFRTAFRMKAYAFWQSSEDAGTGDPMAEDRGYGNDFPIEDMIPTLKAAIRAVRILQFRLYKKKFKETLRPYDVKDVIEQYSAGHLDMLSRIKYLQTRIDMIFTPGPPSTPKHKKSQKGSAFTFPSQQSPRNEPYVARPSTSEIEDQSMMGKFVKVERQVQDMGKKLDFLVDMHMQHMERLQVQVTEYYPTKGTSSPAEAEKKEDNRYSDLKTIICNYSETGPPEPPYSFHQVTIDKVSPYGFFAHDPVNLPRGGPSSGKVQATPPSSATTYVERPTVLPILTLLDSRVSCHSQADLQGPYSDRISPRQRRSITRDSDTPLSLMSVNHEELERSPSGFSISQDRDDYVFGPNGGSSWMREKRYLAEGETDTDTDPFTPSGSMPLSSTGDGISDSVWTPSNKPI
Sequence (O43526 whole entry): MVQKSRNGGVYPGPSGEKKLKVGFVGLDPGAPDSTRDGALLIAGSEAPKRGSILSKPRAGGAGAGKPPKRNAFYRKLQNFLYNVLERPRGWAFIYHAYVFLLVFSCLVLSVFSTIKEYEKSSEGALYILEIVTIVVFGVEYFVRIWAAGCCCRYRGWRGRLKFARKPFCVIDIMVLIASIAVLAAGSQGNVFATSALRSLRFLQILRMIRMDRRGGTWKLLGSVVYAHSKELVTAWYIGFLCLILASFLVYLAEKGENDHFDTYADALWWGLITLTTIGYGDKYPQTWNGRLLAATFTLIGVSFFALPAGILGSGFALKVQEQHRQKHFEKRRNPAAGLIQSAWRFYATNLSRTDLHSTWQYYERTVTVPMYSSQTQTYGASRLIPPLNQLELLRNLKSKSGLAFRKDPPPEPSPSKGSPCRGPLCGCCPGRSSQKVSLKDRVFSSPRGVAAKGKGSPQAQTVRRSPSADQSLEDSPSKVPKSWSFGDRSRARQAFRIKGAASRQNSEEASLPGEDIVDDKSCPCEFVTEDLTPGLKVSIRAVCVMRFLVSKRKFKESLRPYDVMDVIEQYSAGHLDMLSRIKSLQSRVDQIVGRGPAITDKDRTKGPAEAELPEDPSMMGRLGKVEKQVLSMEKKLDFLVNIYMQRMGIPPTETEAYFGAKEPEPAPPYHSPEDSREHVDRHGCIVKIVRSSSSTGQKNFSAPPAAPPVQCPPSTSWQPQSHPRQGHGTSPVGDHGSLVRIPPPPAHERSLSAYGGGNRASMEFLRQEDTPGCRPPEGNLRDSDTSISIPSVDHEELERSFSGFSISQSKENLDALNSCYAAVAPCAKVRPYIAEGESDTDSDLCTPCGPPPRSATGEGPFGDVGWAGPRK
endpoint-name: pEC50
Answers are plain numbers, as −log10 of the molar value.

Completed entries (count: 10):
structure=CCCC(=O)Nc1ncc(CNc2ccc(F)cc2)cc1C1CC1 endpoint_name=pEC50 reading=5.70
structure=CCCC(=O)Nc1ncc(CNc2ccc(F)cc2)cc1C endpoint_name=pEC50 reading=5.32
structure=Cc1cc(CNc2ccc(F)cc2)ccc1NC(=O)CCn1cccn1 endpoint_name=pEC50 reading=5.63
structure=CCCC(=O)Nc1c(C)cc(CNc2ccc(F)cc2)cc1C endpoint_name=pEC50 reading=6.84
structure=Cc1nc(CNc2ccc(F)cc2)ccc1NC(=O)OCC(C)C endpoint_name=pEC50 reading=5.38
structure=CCCC(=O)Nc1ccc(CNc2ccc(C)cn2)cc1C endpoint_name=pEC50 reading=5.10
structure=CCCC(=O)Nc1ccc(CNc2ccc(F)cc2)cc1C(F)(F)F.Cl endpoint_name=pEC50 reading=6.44
structure=CCCC(=O)Nc1ccc(CNc2ccc(F)cc2)cc1C endpoint_name=pEC50 reading=6.17
structure=Cc1cc(CNc2ccc(F)cc2)cnc1NC(=O)CC(C)(C)C endpoint_name=pEC50 reading=6.17
structure=CCCC(=O)Nc1ncc(CNc2ccc(F)cc2)cc1Br endpoint_name=pEC50 reading=5.26

Hey, can you go through the list below and give me pEC50 for every item?
1. CCCC(=O)Nc1ccc(CNc2ccc(F)cc2)cc1F
2. CCOC(=O)Nc1ccc(NCc2ccc(F)cc2)cc1N

RESULT:
1: 5.82; 2: 6.60

* * *

assay: Cyclic voltammetry, anodic peak potential (oxidizability); assay type: physicochemical; details: 0.1 M Tris‐HCl buffer pH 7.4, −0.5 to 1.0 V, sweep rate 0.1 V/s, –[b] = no oxidation observed in the specified potential range
endpoint-name: Ep.a. (anodic peak potential) (mV)
Give bare numbers, in mV.

compound="CCCC(=O)Nc1ncc(CNc2ccc(F)cc2)cc1C [43 a]" endpoint_name="Ep.a. (anodic peak potential)" reading=678

For each of the items listed, what is its Ep.a. (anodic peak potential)?
1. CCCC(=O)Nc1ccc(CNc2ccc(F)cc2)cc1F [35 c]
2. Cc1cc(CNc2ccc(F)cc2)cnc1NC(=O)CC(C)(C)C [43 b]
3. Cc1nc(CNc2ccc(F)cc2)ccc1NC(=O)OCC(C)C [compound 27]

RESULT:
643
663
648

* * *

Experiment: LogD7.4 estimation by HPLC-based method
Assay type: physicochemical
Details: pH 7.4, calculated from retention time with one calibration function (A–F), Table S7; read-out: logD7.4 (single determination)
Method: The logarithm of the capacity factors of the reference substances was then plotted against the corresponding logP values taken from the mentioned guideline to obtain a calibration function. […] The reference mixture was measured before and after the substances to be tested, and the mean retention time from both measurements was used to calculate the calibration function. […]
endpoint-name: chromatographic logD
One number for each entry.

For orientation, consider the following solved cases.
structure=CCCC(=O)Nc1ccc(CNc2ccc(F)cc2)cc1C reading=2.88
structure=CCCC(=O)Nc1ccc(CNc2ccc(C)cn2)cc1C reading=2.29
structure=Cc1nc(CNc2ccc(F)cc2)ccc1NC(=O)OCC(C)C reading=3.42
structure=CCCC(=O)Nc1ncc(CNc2ccc(F)cc2)cc1C reading=2.33
structure=CCCC(=O)Nc1ncc(CNc2ccc(F)cc2)cc1C1CC1 reading=2.77

Could you report chromatographic logD for every entry in the following list?
1. CCCC(=O)Nc1c(C)cc(CNc2ccc(F)cc2)cc1C
2. CCCC(=O)Nc1ncc(CNc2ccc(F)cc2)cc1Br
3. CCOC(=O)Nc1ccc(C#Cc2ccccc2)nc1N
4. Cc1cc(CNc2ccc(F)cc2)ccc1NC(=O)c1ccccc1CO
5. CCOC(=O)Nc1ccc(CCc2ccc(F)cc2)nc1N
6. Cc1cc(CNc2ccc(F)cc2F)ccc1NC(=O)c1cccnc1
7. Cc1cc(CNc2ccc(F)cc2)ccc1NC(=O)CCn1cccn1
8. Cc1cc(CNc2ccc(F)cc2)cnc1NC(=O)CC(C)(C)C

RESULT:
1. 3.04
2. 2.71
3. 2.99
4. 2.93
5. 2.95
6. 2.97
7. 2.93
8. 3.03

Please go through the list and note chromatographic logD for each compound.
1. CCCC(=O)Nc1ccc(CNc2ccc(F)cc2)cc1F
2. CCCC(=O)Nc1ccc(CNc2ccc(F)cc2)cc1C(F)(F)F.Cl

RESULT:
1: 2.96; 2: 3

* * *

tested on: HEP‐G2 human hepatoma cell line; settings: human, 24 h
Task for the reader: assign each of the following compounds its reported LD25 (concentration to reduce cell viability by 25 %).
Numbers only, in µM.

Sample records with LD25 (concentration to reduce cell viability by 25 %):
compound="CCCC(=O)Nc1ncc(CNc2ccc(F)cc2)cc1C [43 a]" target_or_system="HEP‐G2 human hepatoma cell line" unit_descriptor=µM reading=46
compound="CCOC(=O)Nc1ccc(NCc2ccc(F)cc2)nc1N [Flu, flupirtine]" target_or_system="HEP‐G2 human hepatoma cell line" unit_descriptor=µM reading=74
compound="Cc1cc(CNc2ccc(F)cc2)ccc1NC(=O)c1ccccc1CO [compound 48]" target_or_system="HEP‐G2 human hepatoma cell line" unit_descriptor=µM reading=80

Give LD25 (concentration to reduce cell viability by 25 %) for all compounds that follow.
1. CCOC(=O)Nc1ccc(CCc2ccc(F)cc2)nc1N [compound 7]
2. CCCC(=O)Nc1ncc(CNc2ccc(F)cc2)cc1C1CC1 [43 c]
3. Cc1cc(CNc2ccc(F)cc2F)ccc1NC(=O)c1cccnc1 [35 e]
4. Cc1cc(CNc2ccc(F)cc2)cnc1NC(=O)CC(C)(C)C [43 b]
5. CCCC(=O)Nc1ccc(CNc2ccc(F)cc2)cc1C [35 b]
6. Cc1nc(CNc2ccc(F)cc2)ccc1NC(=O)OCC(C)C [compound 27]
7. CCCC(=O)Nc1ccc(CNc2ccc(F)cc2)cc1C(F)(F)F.Cl [35 d]

RESULT:
1: 27; 2: 55; 3: 61; 4: 66; 5: 88; 6: 136; 7: 75

* * *

test: Cyclic voltammetry, anodic peak potential (oxidizability); assay type: physicochemical; conditions: 0.1 M Tris‐HCl buffer pH 7.4, −0.5 to 1.0 V, sweep rate 0.1 V/s, –[b] = no oxidation observed in the specified potential range
Under this convention, yes (1) denotes Ep.a. (anodic peak potential) strictly below 600 mV and no (0) denotes Ep.a. (anodic peak potential) at or above 600 mV.

The examples below pair each entry with its known result.
structure=CCCC(=O)Nc1ccc(CNc2ccc(F)cc2)cc1C(F)(F)F.Cl classification="no (0)"
structure=CCCC(=O)Nc1ccc(CNc2ccc(C)cn2)cc1C classification="no (0)"
structure=CCOC(=O)Nc1ccc(NCc2ccc(F)cc2)cc1N classification="yes (1)"
structure=CCCC(=O)Nc1ncc(CNc2ccc(F)cc2)cc1C1CC1 classification="no (0)"
structure=CCCC(=O)Nc1ncc(CNc2ccc(F)cc2)cc1Br classification="no (0)"
structure=CCOC(=O)Nc1ccc(CCc2ccc(F)cc2)nc1N classification="no (0)"
structure=CCOC(=O)Nc1ccc(NCc2ccc(F)cc2)nc1N classification="yes (1)"
structure=CCCC(=O)Nc1c(C)cc(CNc2ccc(F)cc2)cc1C classification="no (0)"

QUERY: Hi there! Is Ep.a. (anodic peak potential) for CCOC(=O)Nc1ccc(C#Cc2ccccc2)nc1N below 600 mV, do you know?
RESULT: yes (1)

* * *

tested on: HEP‐G2 human hepatoma cell line; conditions: human, 24 h
endpoint-name: LD50 (concentration to reduce cell viability by 50 %)

Known LD50 (concentration to reduce cell viability by 50 %) results, listed for orientation:
structure=Cc1cc(CNc2ccc(F)cc2)ccc1NC(=O)c1ccccc1CO reading="84 ± 6 µM"
structure=CCCC(=O)Nc1c(C)cc(CNc2ccc(F)cc2)cc1C reading=">125 µM"
structure=CCCC(=O)Nc1ncc(CNc2ccc(F)cc2)cc1C1CC1 reading=">125 µM"
structure=CCCC(=O)Nc1ncc(CNc2ccc(F)cc2)cc1C reading=">125 µM"
structure=CCOC(=O)Nc1ccc(CCc2ccc(F)cc2)nc1N reading=">63 µM"

For each entry beneath this line, provide reported LD50 (concentration to reduce cell viability by 50 %).
1. Cc1cc(CNc2ccc(F)cc2)ccc1NC(=O)CCn1cccn1
2. Cc1nc(CNc2ccc(F)cc2)ccc1NC(=O)OCC(C)C

RESULT:
>63 µM
>250 µM
